Test system: OVCAR-5 ovarian
Test: NCI-60 one-dose screen, 48 h (100 = growth as untreated, 0 = no growth, -100 = all killed)
Details: 10 µM unless noted
Compounds without any hit were thinned out: in the full panel of roughly 83,000, 20% have a hit.
Record form. Attribute: growth. Fill in for each entry.
One number for each entry, in %.

Recorded results for 8 molecules are shown here.
INSERT INTO measurements (molecule, reported_property, value_observed) VALUES
  ('C=C1C(=O)O[C@H]2[C@H]1CC/C(COC(=O)NCCc1ccc(OC)cc1)=C\CC[C@@]1(C)O[C@@H]21', 'growth', 30.9),
  ('CC(C)(C)OC(=O)N[C@@H](Cc1ccccc1)C(=O)N(Cc1ccccc1)C1(C(=O)NCc2ccccc2)CCN(Cc2ccccc2)CC1', 'growth', 31.1),
  ('O=c1cc(C2NCCc3c2[nH]c2ccccc32)c2c(ccc3ccccc32)o1 (stereo not drawn)', 'growth', 78.3),
  ('CCn1c(=O)c2c(=O)c3c4c(oc3oc2c2ccccc21)C(=O)c1ccccc1C4=O', 'growth', 118),
  ('COc1ccc(C2SCC(=O)N2NC(=O)c2ccc(NC(=O)c3ccccn3)cc2)cc1OC (stereo not drawn)', 'growth', 100),
  ('CCSc1nnc(NC(=O)COc2ccc(Cl)cc2C)s1', 'growth', 96.2),
  ('NS(=O)(=O)c1ccc(CN2C(=O)c3cccc4cccc(c34)C2=O)cc1', 'growth', 89.6),
  ('CCCCCC(=O)OCc1ccccc1', 'growth', 105);

Field: growth. Fill in for each record below.
1. Cc1cc(NC(=O)COC(=O)c2sc3cc(F)ccc3c2Cl)no1
2. COc1ccc(/C=c2\sc3n(c2=O)C2C(NN=3)N(C)C(=O)N2C)cc1 (stereo not drawn)
3. CCCCC(N)(C(=O)O)C1CCCC1 (stereo not drawn)
4. O=C(CNc1c(Cl)cccc1Cl)Nc1ccc(-c2nc3ccccc3s2)cc1
5. CC(=O)n1cc([C@H]2CC[C@H](c3cn(C(C)=O)c4ccccc34)c3c2[nH]c2ccccc32)c2ccccc21

[100, 54.9, 97.8, 110, 102]

----------
I'd appreciate it if you could supply growth values for the items below.
Tested on: U251 CNS
Assay: NCI-60 one-dose screen, 48 h (100 = growth as untreated, 0 = no growth, -100 = all killed)
Conditions: 10 µM unless noted
Compounds without any hit were thinned out: in the full panel of roughly 83,000, 20% have a hit.
Give bare numbers, in %.

INSERT INTO measurements (molecule, measurement_units, value_observed) VALUES
  ('CC(C)(C)c1cn2cccc(C(=O)N3CCN(CC(=O)Nc4ccc(Cl)cc4C(=O)c4ccccc4Cl)CC3)c2n1', '%', 43.4),
  ('O=c1oc2c([nH]c3ccc4ccccc4c32)c2ccccc12', '%', 100),
  ('CCn1cc(C2NC(=O)c3cc(F)ccc3N2)c2cccc(Cl)c21 (centres undefined)', '%', -14.2),
  ('C=CCc1cc(Cl)cc2c(OC(C)=O)c(C(C)=O)c(-c3ccccc3)nc12', '%', 105),
  ('O=S(=O)(c1ccccc1)n1ccc(-c2ccc3c(c2)CCO3)n1', '%', 73.6);

Fill in growth for each of the 7 molecules listed.
1. CSc1ccccc1C#C/C=C\C#Cc1ccccc1N1CCCC1=O
2. CC(Br)C(Br)c1cc2c(cc1Br)OCO2 (centres undefined)
3. COc1cc(-c2csc(NC(=O)Nc3ccc(Cl)cc3Cl)n2)cc(OC)c1OC
4. c1ccc(CCn2nnc3c(Nc4ccc(N5CCOCC5)cc4)ncnc32)cc1
5. O=c1[nH]c(-c2cn(-c3ccc(Cl)cc3)nn2)nc2ccccc12
6. CCCCCCCC/C=C\CCCCCCCCOc1ccccc1CCOP(=O)(O)OCC[N+](C)(C)C
7. C#CCN1C(=O)/C(=c2\sc3n(c2=O)C2C(NN=3)N(CC)C(=O)N2CC)c2ccccc21 (centres undefined)

34.3
93.1
25.7
93.3
74.5
13.3
11.2

Reference source: PubChem BioAssay (NCI)
